- assay_procedure: Cutaneous pharmacokinetics in skin punch biopsies of healthy volunteers (MALDI-MSI)
- Type: in vivo, human
- condition_notes: human, skin / plasma, topical, 2 mg/cm^2, HVs; read-out: mean ratio skin/plasma concentration
measured_parameter: Kp at 6 h

(Q) Given the compound Nc1cc(C(F)(F)F)c(-c2nc(N3CCOCC3)nc(N3CCOCC3)n2)cn1 , what is its reported Kp at 6 h?
(A) 3050

* * *

- assay_procedure: Systemic pharmacokinetics in plasma of healthy volunteers (UPLC-MS/MS), part A
- Type: in vivo, human
- condition_notes: human, plasma, topical, 2 mg/cm^2, HVs, after 14 days of once-daily gel; read-out: highest AUC(0-24h)
measured_parameter: AUC(0-t) (µg·h/mL)
Numbers only, in µg·h/mL.

(Q) Given the molecule Nc1cc(C(F)(F)F)c(-c2nc(N3CCOCC3)nc(N3CCOCC3)n2)cn1 , what is its reported AUC(0-t)?
(A) 0.04
